Hey, just so you know, these numbers are from patent US8501755B2.

Each entry below carries its reported IC50.
- Tested on: N87
- Experiment notes: In vitro tumor cell proliferation assay (Cell Titer-Glo) in N87 cells
- Format: cell-based
- Details: N87 human gastric carcinoma overexpressing HER2 and HER1; 72 hours exposure; read-out: IC50, activities in N87 cell lines

Task item: Supply reported IC50 belonging to this molecule: C/C=C/C(=O)N1CCc2c(sc3ncnc(Nc4ccc(F)c(Cl)c4)c23)C1
Reply: 200 to 5000 nM

====

- System: N87
- Experiment notes: In vitro tumor cell proliferation assay (Cell Titer-Glo) in N87 cells
- Type: cell-based
- Details: N87 human gastric carcinoma overexpressing HER2 and HER1; 72 hours exposure; read-out: IC50, activities in N87 cell lines
pIC50: −log10 of the molar value.
Measured property: pIC50

Guide cases for pIC50, answers given:
* CN(C)C/C=C/C(=O)N1CCc2c(sc3ncnc(Nc4ccc(OCc5cccc(F)c5)c(Cl)c4)c23)C1 | > 6.70
* CN1CCC=C(C(=O)N2CCc3c(sc4ncnc(Nc5ccc(OCc6ccccn6)c(Cl)c5)c34)C2)C1 | 5.30 to 6.70
* CCN(C)C/C=C/C(=O)N1CCc2c(sc3ncnc(Nc4cccc(Br)c4)c23)C1 | > 6.70

Let us examine a further case.
Task item: Supply reported pIC50 belonging to this compound: O=C(/C=C/CN1CCOCC1)N1CCc2c(sc3ncnc(Nc4ccc5c(ccn5Cc5ccccc5)c4)c23)C1
Reply: > 6.70
